target: T1, human Ror2 (human, UniProt Q01974 34-403, limits assumed); assay: ELISA, human Ror2; ratio of signal at pH 6.0 to pH 7.4
T1 construct: also called hROR2; receptor tyrosine kinase-like orphan receptor 2
T1 sequence (Q01974 34-403 limits assumed): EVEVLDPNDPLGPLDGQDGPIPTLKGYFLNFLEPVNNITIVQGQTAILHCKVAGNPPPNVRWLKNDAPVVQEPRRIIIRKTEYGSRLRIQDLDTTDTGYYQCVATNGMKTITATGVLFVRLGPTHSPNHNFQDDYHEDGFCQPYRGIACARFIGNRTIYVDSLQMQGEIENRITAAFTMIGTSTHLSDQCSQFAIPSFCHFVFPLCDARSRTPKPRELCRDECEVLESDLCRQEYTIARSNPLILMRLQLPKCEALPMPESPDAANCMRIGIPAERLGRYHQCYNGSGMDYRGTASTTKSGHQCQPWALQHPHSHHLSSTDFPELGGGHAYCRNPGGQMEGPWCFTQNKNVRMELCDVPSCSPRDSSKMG
# reported ratio, pH 6.0/7.4; entries follow
# answer = number (no unit)

Solved cases below.
>>> recorded_measurement("HC-F029E (antibody, V domains shown) VH: EVQLQQSGPELVKPGASVKISCKTSGYTETEYTMHWMKQSHRKSLEWIGGINTNNGGTGYNQKFKGKATLTVDKSSSTAYMELRSLTSEDSAVYFCARGSLYSYGNSYFDYWGQGTLVTVSS VL: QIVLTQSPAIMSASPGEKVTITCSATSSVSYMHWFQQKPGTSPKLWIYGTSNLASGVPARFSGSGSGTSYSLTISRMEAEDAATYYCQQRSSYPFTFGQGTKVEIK")
1.81
>>> recorded_measurement("HC-W112L (antibody, V domains shown) VH: EVQLQQSGPELVKPGASVKISCKTSGYTFTEYTMHWMKQSHRKSLEWIGGINTNNGGTGYNQKFKGKATLTVDKSSSTAYMELRSLTSEDSAVYFCARGSLYSYGNSYFDYLGQGTLVTVSS VL: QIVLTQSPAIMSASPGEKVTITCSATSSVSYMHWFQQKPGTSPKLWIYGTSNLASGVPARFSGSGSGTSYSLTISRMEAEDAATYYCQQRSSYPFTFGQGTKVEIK")
1.75
>>> recorded_measurement("HC-D110L (antibody, V domains shown) VH: EVQLQQSGPELVKPGASVKISCKTSGYTFTEYTMHWMKQSHRKSLEWIGGINTNNGGTGYNQKFKGKATLTVDKSSSTAYMELRSLTSEDSAVYFCARGSLYSYGNSYFLYWGQGTLVTVSS VL: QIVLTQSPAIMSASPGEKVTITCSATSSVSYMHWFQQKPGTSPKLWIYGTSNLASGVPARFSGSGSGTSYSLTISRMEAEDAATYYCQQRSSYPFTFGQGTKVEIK")
1.68
>>> recorded_measurement("HC-G105D (antibody, V domains shown) VH: EVQLQQSGPELVKPGASVKISCKTSGYTFTEYTMHWMKQSHRKSLEWIGGINTNNGGTGYNQKFKGKATLTVDKSSSTAYMELRSLTSEDSAVYFCARGSLYSYDNSYFDYWGQGTLVTVSS VL: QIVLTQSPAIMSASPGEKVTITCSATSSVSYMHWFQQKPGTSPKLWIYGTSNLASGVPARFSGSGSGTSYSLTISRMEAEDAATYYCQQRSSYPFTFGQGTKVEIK")
1.34

Now look at this one.
// sample HC-T053D (antibody, V domains shown) VH: EVQLQQSGPELVKPGASVKISCKTSGYTFTEYTMHWMKQSHRKSLEWIGGINDNNGGTGYNQKFKGKATLTVDKSSSTAYMELRSLTSEDSAVYFCARGSLYSYGNSYFDYWGQGTLVTVSS VL: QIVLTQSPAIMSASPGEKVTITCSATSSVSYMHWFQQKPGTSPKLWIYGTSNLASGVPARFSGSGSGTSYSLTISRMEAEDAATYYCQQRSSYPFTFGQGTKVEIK , its ratio, pH 6.0/7.4 was 4.99
